# target-or-test-system: PDE5A1 (Homo sapiens, UniProt O76074)
# Construct: from tissue; host or cells: human platelets from fresh donor blood (10,000 x g supernatant of sonicated lysate)
# assay: Inhibition of type 5 phosphodiesterase (PDE5) activity, modified SPA test with human platelet lysate
# Assay type: biochemical
# run-parameters: 0.5 μM cGMP, read-out: PDE5A1 inhibitory values [measured as −log IC50 (mol/l)] (converted)
Each entry below carries its reported IC50.

Example entries and their recorded answers appear below.
COc1ccc(OCC2CC2)c(-c2ncnc3c(C(=O)N[C@@H]4CCN(C(C)=O)C[C@H]4O)c(C)[nH]c23)c1 (relative stereo)	< 1 nM
CCOC(=O)N[C@H]1CC[C@@H](NC(=O)c2c(C)[nH]c3c(-c4c(OCC5CC5)ccc5c4OCO5)ncnc23)CC1	< 1 nM
CC(=O)N[C@H]1CC[C@@H](NC(=O)c2c(C)[nH]c3c(-c4cc(F)ccc4OCC4CC4)ncnc23)CC1	1 to 10 nM

Okay, now this molecule:
// returns reported IC50 for input CCC(=O)N[C@H]1CC[C@H](NC(=O)c2c(C)[nH]c3c(-c4cc(C(C)=O)ccc4OCC4CC4)ncnc23)CC1
< 1 nM
